# Conditions: 333.15 K, Maximal bubble pressure
Rule: surface tension liquid-gas below 40 mN/m gives Y. Equal to or above 40 mN/m gives N.

[
  {
    "Molecule": "CCn1cc[n+](CCOC)c1.O=S(=O)([N-]S(=O)(=O)C(F)(F)F)C(F)(F)F",
    "Label Value": "Y"
  },
  {
    "Molecule": "CCn1cc[n+](CCOC)c1.N#C[S-] [1-ethyl-3-(2-methoxyethyl)imidazolium thiocyanate]",
    "Label Value": "N"
  }
]

Take the molecule CC(=O)[O-].CCn1cc[n+](CCOC)c1 [1-ethyl-3-(2-methoxyethyl)imidazolium acetate] and say whether its surface tension liquid-gas is less than 40 mN/m. N

Take the molecule `CCn1cc[n+](CCOC)c1.O=S(=O)([O-])C(F)(F)F` and say whether its surface tension liquid-gas is less than 40 mN/m. Y

Take the molecule CCn1cc[n+](CCOC)c1.N#C[N-]C#N [1-ethyl-3-(2-methoxyethyl)imidazolium dicyanamide] and say whether its surface tension liquid-gas is less than 40 mN/m. N

====

Provide the reported surface tension liquid-gas of each item.
# Conditions: 308.15 K, Maximal bubble pressure
One number for each entry, in mN/m.

Answered examples (4):
[
  {
    "Compound": "CCn1cc[n+](CCOC)c1.N#C[S-] [1-ethyl-3-(2-methoxyethyl)imidazolium thiocyanate]",
    "surface tension liquid-gas (mN/m)": 48.4
  },
  {
    "Compound": "CC(=O)[O-].CCn1cc[n+](CCOC)c1 [1-ethyl-3-(2-methoxyethyl)imidazolium acetate]",
    "surface tension liquid-gas (mN/m)": 45.4
  },
  {
    "Compound": "CCn1cc[n+](CCOC)c1.O=S(=O)([N-]S(=O)(=O)C(F)(F)F)C(F)(F)F",
    "surface tension liquid-gas (mN/m)": 35.5
  },
  {
    "Compound": "CCn1cc[n+](CCOC)c1.O=S(=O)([O-])C(F)(F)F",
    "surface tension liquid-gas (mN/m)": 37.4
  }
]

For the next question, use this compound.
Give the reported surface tension liquid-gas for this compound. CCn1cc[n+](CCOC)c1.N#C[N-]C#N [1-ethyl-3-(2-methoxyethyl)imidazolium dicyanamide] 44

====

# Conditions: 298.15 K, Maximal bubble pressure
Measured Endpoint: surface tension liquid-gas (mN/m)
Answers are plain numbers, in mN/m.

Answered examples (4):
[
  {
    "Compound": "CCn1cc[n+](CCOC)c1.N#C[S-] [1-ethyl-3-(2-methoxyethyl)imidazolium thiocyanate]",
    "Measured Endpoint": "surface tension liquid-gas",
    "Unit Tag": "mN/m",
    "Value": 49
  },
  {
    "Compound": "CCn1cc[n+](CCOC)c1.O=S(=O)([O-])C(F)(F)F",
    "Measured Endpoint": "surface tension liquid-gas",
    "Unit Tag": "mN/m",
    "Value": 38
  },
  {
    "Compound": "CCn1cc[n+](CCOC)c1.N#C[N-]C#N [1-ethyl-3-(2-methoxyethyl)imidazolium dicyanamide]",
    "Measured Endpoint": "surface tension liquid-gas",
    "Unit Tag": "mN/m",
    "Value": 44.6
  },
  {
    "Compound": "CC(=O)[O-].CCn1cc[n+](CCOC)c1 [1-ethyl-3-(2-methoxyethyl)imidazolium acetate]",
    "Measured Endpoint": "surface tension liquid-gas",
    "Unit Tag": "mN/m",
    "Value": 46
  }
]

For the next question, use this compound.
Give the reported surface tension liquid-gas for this compound. `CCn1cc[n+](CCOC)c1.O=S(=O)([N-]S(=O)(=O)C(F)(F)F)C(F)(F)F` 36
